Each entry below carries its measured IC50, system: UniProt P03428.

Worked cases, IC50 given:
Molecule: CNC(=O)NC1CCCC(n2ccc3cnc(-c4c[nH]c5ncc(F)cc45)nc32)C1 (stereo not drawn) [Compound B57]
Experimental Readout: IC50
Reported Value: 10 to 100 µM
//
Molecule: O=C(O)CN1CCc2cnc(-c3c[nH]c4ncc(F)cc34)nc21 [Compound B9]
Experimental Readout: IC50
Reported Value: > 100 µM
//
Molecule: CCOCCOCCCCC(=O)N[C@H]1CCC[C@@H](n2ccc3cnc(-c4c[nH]c5ncc(F)cc45)nc32)C1 (relative stereo) [Compound B100]
Experimental Readout: IC50
Reported Value: 10 to 100 µM
//
Molecule: COC(=O)[C@H](C)NC(=O)Cn1ccc2c(-c3c[nH]c4ncc(F)cc34)ncnc21 [Compound A10]
Experimental Readout: IC50
Reported Value: 10 to 100 µM

Lab note: UniProt P03428 assay, enter IC50 for CN(C)C(=O)Cn1ccc2cnc(-c3c[nH]c4ncc(F)cc34)nc21 [Compound B1] here 10 to 100 µM

Lab note: UniProt P03428 assay, enter IC50 for CNC(=O)[C@@H]1CCCC[C@H]1n1cc(F)c2cnc(-c3c[nH]c4ncc(Cl)cc34)nc21 (racemic) [Compound B95] here 10 to 100 µM

Lab note: UniProt P03428 assay, enter IC50 for CNC(=O)N1CCC(Cn2cc(F)c3cnc(-c4c[nH]c5ncc(F)cc45)nc32)CC1 [Compound B62] here > 100 µM

Lab note: UniProt P03428 assay, enter IC50 for CCOCCOCCOCC(=O)N1CCC[C@H](n2ccc3cnc(-c4c[nH]c5ncc(F)cc45)nc32)C1 [Compound B32] here 10 to 100 µM

Lab note: UniProt P03428 assay, enter IC50 for CCOC(=O)[C@@H]1C2CCC(CC2)[C@H]1n1cc(-c2cccc(O)c2)c2cnc(-c3c[nH]c4ncc(F)cc34)nc21 [Compound B182] here 1 to 10 µM

Lab note: UniProt P03428 assay, enter IC50 for CCCCCOCCCCCNC(=O)N1CCC[C@H](n2ccc3cnc(-c4c[nH]c5ncc(F)cc45)nc32)C1 [Compound B34] here > 100 µM

====

- Target Under Test: Influenza PB2 (Influenza A virus, UniProt P03428)
- Sequence (P03428 whole entry, looked up): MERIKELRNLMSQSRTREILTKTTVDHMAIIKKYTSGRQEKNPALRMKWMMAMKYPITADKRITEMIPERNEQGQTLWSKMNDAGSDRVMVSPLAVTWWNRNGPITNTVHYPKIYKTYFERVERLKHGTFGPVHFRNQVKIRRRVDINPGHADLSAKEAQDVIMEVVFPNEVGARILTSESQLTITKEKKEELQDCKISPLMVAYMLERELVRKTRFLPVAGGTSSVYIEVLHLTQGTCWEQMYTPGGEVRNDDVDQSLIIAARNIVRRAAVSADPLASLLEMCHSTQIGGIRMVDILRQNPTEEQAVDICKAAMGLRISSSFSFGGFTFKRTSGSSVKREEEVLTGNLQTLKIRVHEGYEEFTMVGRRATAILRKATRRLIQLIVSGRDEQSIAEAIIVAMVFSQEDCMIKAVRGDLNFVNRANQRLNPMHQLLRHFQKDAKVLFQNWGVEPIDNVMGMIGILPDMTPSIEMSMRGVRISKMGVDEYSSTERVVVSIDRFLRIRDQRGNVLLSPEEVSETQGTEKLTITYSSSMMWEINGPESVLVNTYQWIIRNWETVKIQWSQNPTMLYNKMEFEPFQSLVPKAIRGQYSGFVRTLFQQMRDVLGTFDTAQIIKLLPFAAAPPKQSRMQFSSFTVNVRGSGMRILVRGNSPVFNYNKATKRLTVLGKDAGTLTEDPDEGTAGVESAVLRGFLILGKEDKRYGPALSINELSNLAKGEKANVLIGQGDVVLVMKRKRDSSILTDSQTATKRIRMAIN
Experimental Readout: IC50

Worked cases, IC50 given:
Compound: CC(C)(C)OC(=O)N1CCC(Cn2cc(F)c3cnc(-c4c[nH]c5ncc(F)cc45)nc32)CC1
Target Under Test: Influenza PB2 (Influenza A virus, UniProt P03428)
Experimental Readout: IC50
Reported Value: > 100 µM

Compound: O=C(O)[C@@H]1C2CCC(CC2)C1n1cc(-c2ccncc2)c2cnc(-c3c[nH]c4ncc(Cl)cc34)nc21 (stereo partly shown) [Compound B187]
Target Under Test: Influenza PB2 (Influenza A virus, UniProt P03428)
Experimental Readout: IC50
Reported Value: 1 to 10 µM

Compound: CCOC(=O)[C@]1(C)CCCC[C@H]1n1cc(F)c2cnc(-c3c[nH]c4ncc(F)cc34)nc21
Target Under Test: Influenza PB2 (Influenza A virus, UniProt P03428)
Experimental Readout: IC50
Reported Value: > 100 µM

Compound: CCOC(=O)[C@@H]1C2CCC(CC2)[C@H]1n1ccc2ccc(-c3c[nH]c4ncc(F)cc34)nc21
Target Under Test: Influenza PB2 (Influenza A virus, UniProt P03428)
Experimental Readout: IC50
Reported Value: 10 to 100 µM

Compound: COC(=O)[C@]1(C)CCCC[C@H]1n1cc(Cl)c2cnc(-c3c[nH]c4ncc(F)cc34)nc21
Target Under Test: Influenza PB2 (Influenza A virus, UniProt P03428)
Experimental Readout: IC50
Reported Value: 10 to 100 µM

Lab note: Influenza PB2 (Influenza A virus, UniProt P03428) assay, enter IC50 for CCOCc1ccc(C(=O)N[C@H]2CCC[C@@H](n3cc(F)c4cnc(-c5c[nH]c6ncc(Cl)cc56)nc43)C2)nc1 here > 100 µM

Lab note: Influenza PB2 (Influenza A virus, UniProt P03428) assay, enter IC50 for O=C(O)CCn1cc(-c2c[nH]c3ncc(F)cc23)c2cncnc21 here > 100 µM
